# Tested on: human PKK mRNA
# Assay procedure: Dose-dependent antisense inhibition of human PKK in HepaRG cells, 0.11-3.00 uM (Example 6)
# Type: cell-based
# Experimental parameters: electroporation, 1.00 μM, approx. 16 hours, relative to untreated control cells
Strand notation (5' to 3'): a small letter for the sugar, then the base; units joined by * are phosphorothioate-linked, units joined directly phosphodiester-linked; [ ] holds rarer units or linkages, { } end groups; capitals alone tell only the bases. e = 2'-O-(2-methoxyethyl) (MOE); k = constrained ethyl (cEt); [5mC] = 5-methylcytosine; d = 2'-deoxy (DNA)
Endpoint label: percent inhibition of PKK mRNA, 1.00 μM

Assay human PKK mRNA, sample 548479 (eA*eG*kG*d[5mC]*d[5mC]*dA*dT*dT*dT*dG*dA*dT*d[5mC]*k[5mC]*kG*eA; antisense) [compound 548479] , percent inhibition of PKK mRNA, 1.00 μM read: 82%

Entry 547807 (eG*e[5mC]*kA*dG*dT*dA*dT*dT*dG*dG*dG*d[5mC]*dA*kT*kT*eT; antisense) [compound 547807] : percent inhibition of PKK mRNA, 1.00 μM on human PKK mRNA = 61%

Value (percent inhibition of PKK mRNA, 1.00 μM, human PKK mRNA) for record 548125 (antisense e[5mC]*eT*kA*dG*dA*d[5mC]*dT*d[5mC]*dT*dG*dG*dA*d[5mC]*kT*kG*e[5mC]) [compound 548125] = 81%

Known value: human PKK mRNA percent inhibition of PKK mRNA, 1.00 μM of the substance 548521 (antisense e[5mC]*eA*kG*d[5mC]*dT*d[5mC]*d[5mC]*d[5mC]*dT*dT*dA*d[5mC]*dT*kA*kG*eG) [compound 548521] equals 3%

Param item: 548278 (antisense eG*eG*kT*dT*d[5mC]*d[5mC]*d[5mC]*dT*dA*dG*d[5mC]*dG*dG*kT*k[5mC]*e[5mC]) [compound 548278] ; param system: human PKK mRNA; output percent inhibition of PKK mRNA, 1.00 μM: 78%

Considering 548220 (eG*e[5mC]*kA*dG*dA*dA*dA*dT*d[5mC]*d[5mC]*dT*dG*dT*kG*k[5mC]*eA; antisense) [compound 548220] , its percent inhibition of PKK mRNA, 1.00 μM with human PKK mRNA was recorded as 0%
